molecular target: T1, wild-type human KIR3DL2 polypeptide (allele *002) (human, UniProt P43630 22-455); test: binding to HEK-293T cells transfected with wild-type KIR3DL2
T1 construct: also called WTaKIR3DL2; unmutated wild type KIR3DL2
reportedProperty: binding result

# binder, measured
measured = [
    ("antibody 20E9 (antibody, V domains shown, Parental murine monoclonal antibody) VH: QVQLQQSGAEVARPGASVKLSCKSSGFTFTTYWMQWVKQRPGQGLEWIGAIYPGDGDTRYTQKFKGKATLTADKSSITAYMQLSSLASEDSAVYYCARRGDYGNYGMDYWGQGTSVTVSS VL: DVLMTQTPLSLPVSLGDQASISCRSSQSIVHSNGNTYLEWYLQKPGQSPKLLIYKVSNHFSGVPDRFSGSGSGTDFTLKISRVEAEDLGVYYCFQGSHVPPTFGGGTKLEIK", "binds"),
    ("antibody 1C3 (antibody, V domains shown, Parental murine monoclonal antibody; also called 1C3 MAb) VH: QVQLQQSGAELARPGASVKLSCKASGYTFTSYWMQWVKQRPGQGLEWIGAIYPGDGDTRYTQKFKGKATLTADKSSSTAYMQLSSLASEDSAVYYCARRYDGYYHFDYWGQGTTLTVS VL: DIVMTQSPSSLAVTAGEKVTMSCKSSQSLLWSVNQKNYLSWYQQKQRQPPKLLIYGASIRESWVPDRFTGSGSGTDFTLTISNVHAEDLAVYYCQHNHGSFLPLTFGSGTKLEIK", "binds"),
    ("antibody 2B12 (antibody, V domains shown, Parental murine monoclonal antibody) VH: QIQLVQSGPELKKPGETVRISCKASGYTFTTAGMQWVQKTPGKGLKWIGWINSHSGVPKYAEDFKGRFAFSLETSASTAYLQISTLKNEDTATYFCARGGDEGVMDYWGQGTSVTVS VL: DIVMTQSHKFMSTSLGDRVSFTCKASQDVSTAVAWYQQKPGQSPKLLIYWTSTRHTGVPDRFTGSGSGTDYTLTISSVQAEDLALYYCQQHYSTPWTFGGGTKLEIK", "binds"),
]
